Consider the following compounds; for each one, report its GI50.
- Tested on: NCI/ADR-RES
- measurement_protocol: NCI tumour cell line growth inhibition, 48 h
Calls of active or inactive are those of the source. Rule as the data show it: active = GI50 up to about 1.1 µM and inactive = higher.

// query GI50 value for entry COC(=O)c1cccc(C)c1C1CN=NC12Cc1cc(C)cc(C)c1C2=O (stereo not given) 23.1 µM (inactive)

// query GI50 value for entry CCCCC/C=C1\CC(CO)(COC(=O)CC(C(C)C)C(C)C)OC1=O (stereo not given) 20.3 µM (inactive)

// query GI50 value for entry COc1cc2c3cc1Oc1c(OC)c(OC)cc4c1C(Cc1ccc(O)c(c1)Oc1ccc(cc1)CC3N(C)CC2)N(C)CC4 (stereo not given) 31.5 µM (inactive)

// query GI50 value for entry CCN(CC)C(=O)CCNC(C)Cc1c[nH]c2ccccc12 (stereo not given) > 100 µM (inactive)

// query GI50 value for entry `Cc1ccc2c(sc(-c3ccc4c(c3)sc(-c3ccc(N(C)C)cc3)[n+]4C)[n+]2C)c1S(=O)(=O)O.Cc1ccc2c(sc(-c3ccc4c(c3)sc(-c3ccc5c(c3)sc(-c3ccc(N(C)C)cc3)[n+]5C)[n+]4C)[n+]2C)c1S(=O)(=O)O` > 100 µM (inactive)

// query GI50 value for entry `O=C(O)c1c2c(cc3c1CC1(Cc4ccccc4C1)C3)CCC2` 35.4 µM (inactive)

// query GI50 value for entry `O=C1C=CC=C/C1=C1\N=C(c2ccccc2OCC(=O)c2ccc(Br)cc2)SS1` > 100 µM (inactive)

// query GI50 value for entry C[N+]1(CC[N+]2(C)CCCC2c2cccnc2)CCCC1c1cccnc1 (stereo not given) > 100 µM (inactive)

// query GI50 value for entry `COc1ccc(/C=N/n2c(C)n[nH]c2=O)cc1` > 100 µM (inactive)

// query GI50 value for entry `O=C(Cc1nc2ccc(C(=O)c3ccccc3)cc2nc1O)C(=O)Nc1ccc(Br)cc1` > 100 µM (inactive)

// query GI50 value for entry `COc1cc(-c2cc(=O)c3cc4c(=O)cc(-c5cc(OC)c(OC)c(OC)c5)oc4cc3o2)cc(OC)c1OC` 65.9 µM (inactive)

// query GI50 value for entry `COc1nc(C#CCCCC#N)nc(OC)n1` 28.5 µM (inactive)

// query GI50 value for entry `NC(=O)N/N=C\c1ccccc1OCc1cccc(COc2ccccc2/C=N\NC(N)=O)n1` 57.4 µM (inactive)

// query GI50 value for entry `O=C(CCc1ccc(O)c(O)c1)NCCc1ccc(O)c(O)c1` > 100 µM (inactive)

// query GI50 value for entry NC(=O)C(N)Cc1ccc(O)cn1 (stereo not given) > 100 µM (inactive)

// query GI50 value for entry `NS(=O)(=O)OCCCCCCCOS(N)(=O)=O` 273 µM (inactive)

// query GI50 value for entry `Cc1ccc2c3c1O[C@H]1c4nc5ccccc5cc4C[C@@]4(O)[C@@H](C2)N(CC2CC2)CC[C@]314` 6.44 µM (inactive)

// query GI50 value for entry `Oc1ccc(C(O)(c2ccccc2)c2ccccc2)c2ccccc12` 2.1 µM (inactive)

// query GI50 value for entry `Cc1cc2c(cc1Cl)SC(NNC(=O)c1ccccc1)=NS2(=O)=O` > 10 µM (inactive)

// query GI50 value for entry O=C1C(/N=N/c2ccc(-c3nc4ccccc4[nH]3)cc2)NC(=S)N1c1ccccc1 (stereo not given) > 100 µM (inactive)
